system: Escherichia coli TOP10; experiment: shrunken log2 fold change of peptide-encoding DNA abundance (4.5 h post-induction vs induction); higher = less antimicrobial activity (less host growth inhibition); conditions: time post-induction: 4.5 h; library: site-saturation at positions 5, 18, 19, 20;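 also: peptides expressed intracellularly from a pBAD plasmid library in pooled LB shake-flask culture, induced with 0.3% L-arabinose, DNA abundance read by NGS, three biological replicates, DESeq2 with apeglm shrinkage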
// reported shrunken log2 fold change per item
Reply with the value as a number alone.

# input What measured shrunken log2 fold change goes with RRIRVRPPRLPRPRPRPKDVPRP ?
# output 0.00902

# input Using the record for RRIRYRPPRLPRPRPRPQYAPRP , report its shrunken log2 fold change.
# output -0.262

# input // shrunken log2 fold change lookup, key: RRIRNRPPRLPRPRPRPTKRPRP
# output -0.301
